target: m-NTPDase2 (Mus musculus); construct: made in house; host or cells: COS-7 cells, transient transfection; crude protein extract after sonication; assay: m-NTPDase2 inhibition, malachite green assay; assay type: biochemical; conditions: mean ± SEM of three independent experiments
Sequence (O55026 whole entry): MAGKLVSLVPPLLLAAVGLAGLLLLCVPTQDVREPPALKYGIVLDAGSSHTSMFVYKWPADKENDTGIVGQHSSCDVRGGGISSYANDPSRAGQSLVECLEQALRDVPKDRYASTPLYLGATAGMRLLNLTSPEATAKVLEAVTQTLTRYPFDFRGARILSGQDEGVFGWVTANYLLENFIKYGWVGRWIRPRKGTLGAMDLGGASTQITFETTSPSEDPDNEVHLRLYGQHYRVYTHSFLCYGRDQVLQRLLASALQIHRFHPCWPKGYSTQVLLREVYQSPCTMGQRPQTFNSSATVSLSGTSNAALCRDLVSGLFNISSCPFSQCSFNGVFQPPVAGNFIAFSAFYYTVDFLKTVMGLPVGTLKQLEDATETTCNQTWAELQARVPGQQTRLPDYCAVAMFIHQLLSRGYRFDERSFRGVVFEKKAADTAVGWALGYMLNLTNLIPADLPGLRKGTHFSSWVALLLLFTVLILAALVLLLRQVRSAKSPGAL
Collected IC50 values appear next to each entry.
Answer with a number only, understood to be in µM.

Some compounds with known IC50 results, for comparison:
compound	IC50, µM
O=C1Nc2ccccc2/C1=N/NC(=S)Nc1c(F)cccc1F [8l]	0.2
CCNC(=S)N/N=C1\C(=O)Nc2ccccc21 [8m]	1.5
Cc1cccc(C)c1NC(=S)N/N=C1\C(=O)Nc2ccccc21 [8i]	0.15

// switching to the query compound
Notebook: Cc1ccc(C(=O)Nc2ccc(S(=O)(=O)O)c3cc(S(=O)(=O)O)cc(S(=O)(=O)O)c23)cc1NC(=O)c1cccc(NC(=O)Nc2cccc(C(=O)Nc3cc(C(=O)Nc4ccc(S(=O)(=O)O)c5cc(S(=O)(=O)O)cc(S(=O)(=O)O)c45)ccc3C)c2)c1 [Suramin, reference compound] , IC50 read as 21
